Data origin, for the record: patent US20240175069A1

assayedTarget: CYP2B10 (Mus musculus)
Sequence (P12791 1-491 isoform P12791-2 with the stated changes): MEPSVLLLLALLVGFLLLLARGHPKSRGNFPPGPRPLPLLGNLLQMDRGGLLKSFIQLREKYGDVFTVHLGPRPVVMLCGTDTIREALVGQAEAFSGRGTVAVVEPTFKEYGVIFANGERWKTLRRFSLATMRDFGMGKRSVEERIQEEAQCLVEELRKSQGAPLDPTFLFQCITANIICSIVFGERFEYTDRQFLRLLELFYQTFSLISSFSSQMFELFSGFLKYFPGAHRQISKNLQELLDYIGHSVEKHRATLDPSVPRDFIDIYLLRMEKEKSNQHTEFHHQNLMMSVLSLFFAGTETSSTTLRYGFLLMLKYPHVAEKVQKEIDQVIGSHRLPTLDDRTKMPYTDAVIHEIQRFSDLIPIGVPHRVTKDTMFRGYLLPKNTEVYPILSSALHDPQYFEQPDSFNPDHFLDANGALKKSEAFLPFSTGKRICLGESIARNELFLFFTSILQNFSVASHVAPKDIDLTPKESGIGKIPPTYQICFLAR
protocolDetails: Pesticides screening using CYP2B10 inhibition assay (MOBFC fluorescence, Example 1)
Format: biochemical
Parameters: purchased Cypex Limited; bacterial membranes, E. coli by own knowledge
conditionContext: 200 μg/L pesticide; 15 pmol/mL CYP2B10; 10 μM MOBFC; 10% acetonitrile standard
measuredMetric: I (%) at 200 μg/L
// units = %; emit number, no label

Query :: Param readout= I (%) at 200 μg/L; system= CYP2B10 (Mus musculus); entry= COP(=S)(OC)Oc1nc(Cl)c(Cl)cc1Cl ; returns value.
Result :: 49.5

Query :: Param readout= I (%) at 200 μg/L; system= CYP2B10 (Mus musculus); entry= CCOP(=S)(OCC)Oc1nc(Cl)c(Cl)cc1Cl ; returns value.
Result :: 26.8

Query :: Param readout= I (%) at 200 μg/L; system= CYP2B10 (Mus musculus); entry= CCCN(CCOc1c(Cl)cc(Cl)cc1Cl)C(=O)n1ccnc1 ; returns value.
Result :: 60.3

Query :: Param readout= I (%) at 200 μg/L; system= CYP2B10 (Mus musculus); entry= OC(c1ccc(Cl)cc1)(c1ccc(Cl)cc1)C(Cl)(Cl)Cl ; returns value.
Result :: 19.0
